assay: yeast display, Sf9 membrane polyspecificity reagent, FACS + sequencing; frameworks hold sequencing errors
measured quantity: polyreactivity (PSR sort gate)

Some solved entries appear below for comparison.
Query :: # query: polyreactivity (PSR sort gate) of entry `QVQLVESGGGLVQAGGSLRLSCAASGFTFRAYAMGWYRQAPGKERELVAAISWGGGSTYYADSVKGRFTISRDNAKNTVYLQMNSLKPEDTAVYYCATERRRYNTEYEYWGQGTQVTVSS`
Result :: high polyreactivity

Query :: GET /values?readout=polyreactivity (PSR sort gate)&item= `QVQLVESGGGLVQAGGSLRLSCAASGSTFYVYAMGWYRQAPGKDRELVAAITFSGGSTYADSVKGRFTISRDNAKNTVYLQMNSLKPEDTAVYYCATDERGRYTVVYVDEFLYDYWGQGTQVTVSS`
Result :: low polyreactivity

Query :: Tell me the measured polyreactivity (PSR sort gate) of `QVQLVESGGGLVQAGGSLRLSCAASGRTLGTNAMGWYRQAPGKERELVASISKRGGSTYYADSVKGRFTISRDNAKNTVYLQMNSLKPEDTAVYYCAALFLSHIYYYWGQGTQVTVSS` , please.
Result :: high polyreactivity

Query :: Field request: polyreactivity (PSR sort gate) | item: `QVQLVESGGGLVQAGGSLRLSCAASGFIFDVYAMGWYRQAPGKERELVAAITSGDGTNYADSVKGRFTISRDNAKNTVYLQMNSLKPEDTAVYYCAADDGVTYRGIIFSYWGQGSQVTVSS`
Result :: low polyreactivity

Turning to the following sequence.
Query :: What does the record list as polyreactivity (PSR sort gate) for `QVQLVESGGGLVQAGGSLRLSCAASGFTFSGNALGWYRQARGKERELVAAISVGGGRTYYADSVKGRFTISRDNAKNTVYLQMNSLKPEDTAVYYCARYTRRSETWRYDYWGQGTQVTVSS` ?
Result :: high polyreactivity

The values you see were collected from the nanobody polyreactivity screen of Harvey et al. (2022).
